test system: PPARg:RXRa (NR concentration 180 nM, RXRa partner concentration 90 nM); test: PBM binding z-score (relative to random genomic background probes); higher = stronger binding; sequences stand for … in GC…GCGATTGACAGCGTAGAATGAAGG
Classify on PBM binding z-score using bin 0 (below 0.8), bin 1 (0.8 to below 2), bin 2 (2 or more)

> print(dat)
                         sequence.data  label.class
 1  ATGTCTAGGTAAAGATAGTTCAGTGAATGCAAAT        bin 0
 2  TCTATTAGTTGATTAGGGCAACCGCAACAGCGGA        bin 0
 3  GTTGCTAGGTCAGGTTGGTCAGCTAACGGGTACG        bin 1
 4  TGATATAGGTAAACAGGTGAAAGTCCGTAAGTTA        bin 2
 5  TAGCCCAGGTCATTCAGGGGCCAGTATAGAAAGC        bin 2
 6  GGAACGAGAGCATTCGAGTTGATAGCATGGCGAT        bin 0
 7  TCTCGGAGGACACGAAGGTCAGAGGTTTCCAGAG        bin 1
 8  ACTAGTTGGTCCGCTGAGGTCACACACAATTCGG        bin 1
 9  AGTCAAAGTTCATCTAGGTAACGTAGGATATGCT        bin 2
10  CCTAGCAGGCCAATCTGGGTCACTTAAGGCTTGA        bin 1
11  GATACAGGGTCAGCTAGAGGCCAGTGTATGGAAA        bin 2
